Origin of measurements: patent US20240238425A1

# System: HiBiT-HSD17β13 fusion protein (N-terminal HiBiT-tagged HSD17β13 isoform D) in Huh7 HiBiT-HSD17β13 OE cells
# procedure text: Whole-cell Huh7-HSD17B13 HiBiT assay (degrader potency and maximal efficacy, luminescence readout)
# Type: cell-based, human
# stated conditions: 24 hour incubation, max. concentration 1 μM, geometric mean, * = geometric mean for all forms tested (parent and salt forms)
Where a name gives a salt, the structure may show the parent alone.
property name: Huh7_HIBIT-HSD17β13_DC50 GMean Asymptote Maximum (%)
The reply should be a number in %, with the unit left off.

- molecule: "O=C1CCN(c2cnn3cc(CCCN4CCN(c5ccc6cn([C@]78CC[C@](CNC(=O)c9cc(F)c(O)c(F)c9F)(CC7)CC8)nc6c5)CC4)ccc23)C(=O)N1 [Example 97, trifluoroacetate salt]"
  number: 76

Now consider the entry below.
Any idea what Huh7_HIBIT-HSD17β13_DC50 GMean Asymptote Maximum was measured for Cn1c(=O)n(C2CCC(=O)NC2=O)c2ccc(CCCN3Cc4cc(-c5ccc6cn([C@H]7CC[C@H](CNC(=O)c8cc(F)c(O)c(F)c8F)CC7)nc6c5)cnc4C3)cc21 (mixture of isomers) [Example 116, trifluoroacetate salt] ? 88

====

# System: HiBiT-HSD17β13 fusion protein (N-terminal HiBiT-tagged HSD17β13 isoform D) in Huh7 HiBiT-HSD17β13 OE cells
# procedure text: Whole-cell Huh7-HSD17B13 HiBiT assay (degrader potency and maximal efficacy, luminescence readout)
# Type: cell-based, human
# stated conditions: 24 hour incubation, max. concentration 1 μM, geometric mean, * = geometric mean for all forms tested (parent and salt forms)
Structures can show the parent of a compound that is named as a salt.
property name: Huh7_HIBIT-HSD17β13_DC50 GMean Asymptote Maximum

- molecule: "O=C1CCN(c2cnn3cc(CN4CCN(c5cnc(-c6ccc7cn([C@H]8CC[C@H](CNC(=O)c9cc(F)c(O)c(F)c9F)CC8)nc7c6)cn5)CC4)ccc23)C(=O)N1 [Example 70, trifluoroacetate salt]"
  result: "85%"
- molecule: "Cn1c(=O)n(C2CCC(=O)NC2=O)c2ccc(CCCN3Cc4ccc(-c5ccc6cn(C7CCC(CNC(=O)c8cc(F)c(O)c(F)c8F)CC7)nc6c5)nc4C3)cc21 (racemic)"
  result: "83* %"
- molecule: "Cn1c(=O)n(C2CCC(=O)NC2=O)c2ccc(CCCN3CCc4ccc(-c5ccc6cn([C@H]7CC[C@H](CNC(=O)c8cc(F)c(O)c(F)c8F)CC7)nc6c5)cc4C3)cc21 (mixture of isomers) [Example 32, trifluoroacetate salt]"
  result: "83%"

Any idea what Huh7_HIBIT-HSD17β13_DC50 GMean Asymptote Maximum was measured for Cc1ccc(C(=O)N2CCC3(CCC(n4cc(-c5ccc6cn([C@H]7CC[C@H](CNC(=O)c8cc(F)c(O)c(F)c8F)CC7)nc6c5)cn4)CC3)CC2)cc1N1CCC(=O)NC1=O [Example 112, formate salt] ? 81%

Any idea what Huh7_HIBIT-HSD17β13_DC50 GMean Asymptote Maximum was measured for O=C1CCC(N2Cc3c(OCc4ccc(CN5CCC(CCCOc6ccc(-c7noc([C@]89CC[C@](CNC(=O)c%10cc(F)c(O)c(F)c%10)(CC8)CC9)n7)nn6)CC5)cc4)cccc3C2=O)C(=O)N1 (mixture of isomers) [Example 37, trifluoroacetate salt] ? 85%

Any idea what Huh7_HIBIT-HSD17β13_DC50 GMean Asymptote Maximum was measured for O=C1CCN(c2cnn3cc(CCCN4Cc5ccc(-c6ccc7cn([C@H]8CC[C@H](CNC(=O)c9cc(F)c(O)c(F)c9F)CC8)nc7c6)cc5C4)ccc23)C(=O)N1 [Example 131, trifluoroacetate salt] ? 78%

Any idea what Huh7_HIBIT-HSD17β13_DC50 GMean Asymptote Maximum was measured for Cn1c(=O)n(C2CCC(=O)NC2=O)c2ccc(CCCN3CCN(c4cc5cn([C@H]6CC[C@H](CNC(=O)c7cc(F)c(O)c(F)c7F)CC6)nc5cn4)CC3)cc21 (mixture of isomers) [Example 93, formate salt] ? 83%

====

# Test system: HiBiT-HSD17β13 fusion protein (N-terminal HiBiT-tagged HSD17β13 isoform D) in Huh7 HiBiT-HSD17β13 OE cells
# procedure text: Whole-cell Huh7-HSD17B13 HiBiT assay (degrader potency and maximal efficacy, luminescence readout)
# Assay type: cell-based, human
# stated conditions: 24 hour incubation, max. concentration 1 μM, geometric mean, * = geometric mean for all forms tested (parent and salt forms)
Structures can show the parent of a compound that is named as a salt.
Below, each of the compounds is paired with its reported Huh7_HIBIT-HSD17β13_DC50 GMean Asymptote Maximum value.
The reply should be a number in %, with the unit left off.

- compound: "Cc1ccc(C(=O)N2CCN(C3COC4(CCN(c5ncc(-c6ccc7cn([C@H]8CC[C@H](CNC(=O)c9cc(F)c(O)c(F)c9F)CC8)nc7c6)cn5)CC4)C3)CC2)cc1N1CCC(=O)NC1=O (some centres unmarked) [Example 59, trifluoroacetate salt]"
  unit symbol: "%"
  number: 80

Now consider the entry below.
Any idea what Huh7_HIBIT-HSD17β13_DC50 GMean Asymptote Maximum was measured for Cn1c(=O)n(C2CCC(=O)NC2=O)c2ccc(CCCN3CCN(c4ncc(-c5nc([C@]67CC[C@](CNC(=O)c8cc(F)c(O)c(F)c8F)(CC6)CC7)no5)cn4)CC3)cc21 (mixture of isomers) [Example 67, trifluoroacetate salt] ? 89

====

# System: HiBiT-HSD17β13 fusion protein (N-terminal HiBiT-tagged HSD17β13 isoform D) in Huh7 HiBiT-HSD17β13 OE cells
# procedure text: Whole-cell Huh7-HSD17B13 HiBiT assay (degrader potency and maximal efficacy, luminescence readout)
# Assay type: cell-based, human
# stated conditions: 24 hour incubation, max. concentration 1 μM, geometric mean, * = geometric mean for all forms tested (parent and salt forms)
Counter-ions that a name gives are not always drawn.
property name: Huh7_HIBIT-HSD17β13_DC50 GMean Asymptote Maximum
Remember to quote the unit after the number.

- compound: "Cn1c(=O)n(C2CCC(=O)NC2=O)c2ccc(CCCN3CCN(c4nccc(-c5nc([C@]67CC[C@](CNC(=O)c8cc(F)c(O)c(F)c8F)(CC6)CC7)no5)n4)CC3)cc21 (mixture of isomers) [Example 121, formate salt]"
  result: "85%"
- compound: "Cn1c(=O)n(C2CCC(=O)NC2=O)c2ccc(CC(C)(C)CN3CCN(c4nccc(-c5nc([C@]67CC[C@](CNC(=O)c8cc(F)c(O)c(F)c8F)(CC6)CC7)no5)n4)CC3)cc21 (mixture of isomers) [Example 134, trifluoroacetate salt]"
  result: "85%"
- compound: "Cc1ccc(C(=O)N2CCC(CN3CCN(c4ncc(-c5ccc6cn([C@H]7CC[C@H](CNC(=O)c8cc(F)c(O)c(F)c8F)CC7)nc6c5)cn4)CC3)CC2)cc1N1CCC(=O)NC1=O [Example 45, trifluoroacetate salt]"
  result: "76%"
- compound: "O=C1CCN(c2cnn3cc(CCCN4CCN(c5nccc(-c6nc([C@]78CC[C@](CNC(=O)c9cc(F)c(O)c(F)c9F)(CC7)CC8)no6)n5)CC4)ccc23)C(=O)N1 [Example 61, trifluoroacetate salt]"
  result: "72%"
- compound: "Cn1c(=O)n(C2CCC(=O)NC2=O)c2ccc(CCCN3CCN(c4ccc(-c5nc([C@]67CC[C@](CNC(=O)c8cc(F)c(O)c(F)c8F)(CC6)CC7)no5)nn4)CC3)cc21 (mixture of isomers) [Example 66, trifluoroacetate salt]"
  result: "75%"
- compound: "Cl.O=C1CCN(c2cnn3cc(CCCN4CCN(c5cnc(-c6ccc7cn([C@H]8CC[C@H](CNC(=O)c9cc(F)c(O)c(F)c9F)CC8)nc7c6)cn5)CC4)ccc23)C(=O)N1"
  result: "82%"
- compound: "Cn1c(=O)n(C2CCC(=O)NC2=O)c2ccc(CCCN3CCOC4(C3)CN(c3ccc5cn([C@H]6CC[C@H](CNC(=O)c7cc(F)c(O)c(F)c7F)CC6)nc5c3)C4)cc21 (mixture of isomers) [Example 98, trifluoroacetate salt]"
  result: "78%"
- compound: "Cn1c(=O)n(C2CCC(=O)NC2=O)c2ccc(CCCN3CCN(c4nc(-c5nc([C@]67CC[C@](CNC(=O)c8cc(F)c(O)c(F)c8F)(CC6)CC7)no5)cc(-n5ccnc5)n4)CC3)cc21 (mixture of isomers) [Example 125, formate salt]"
  result: "85%"

Now consider the entry below.
Any idea what Huh7_HIBIT-HSD17β13_DC50 GMean Asymptote Maximum was measured for Cn1c(=O)n(C2CCC(=O)NC2=O)c2ccc(CCCN3CCN(c4cnc(-c5ccn6cc([C@]78CC[C@](CNC(=O)c9cc(F)c(O)c(F)c9F)(CC7)CC8)nc6c5)cn4)CC3)cc21 (mixture of isomers) [Example 130, trifluoroacetate salt] ? 83%
